# System: U-251
# PROTOCOL DESCRIPTION: NCI tumour cell line growth inhibition, 48 h
Activity calls are given as the source filed them. Cut-off read from the data, not from the text of the source: active = GI50 up to about 1.1 µM and inactive = higher.
Record form. Attribute: GI50. Fill in for each entry.

List reported GI50 for each of these molecules:
1. COC(=O)c1cc(C)ccc1C1CN=NC12Cc1c(C)cc(C)cc1C2=O (stereo not given)
2. COC1OC(C)C(OC(=O)C(C)(C)C)C(C)(O)C1O (stereo not given)
3. CC12CCCCC1C(=O)C2(Cl)Cl (stereo not given)
4. O=c1oc2cc(O)ccc2c(O)c1C(c1ccccc1F)c1c(O)c2ccc(O)cc2oc1=O
5. O=C1C2=C(C(=O)c3c(O)ccc(O)c31)[C@@H](O)[C@@H](O)[C@@H](O)C2
6. CS[C@]12[C@@H]3C(=O)N(C)C(=O)[C@@H]3[C@](C)(C(=O)N1C)C(=O)N2c1ccccc1

1: 27 µM (inactive); 2: > 100 µM (inactive); 3: 2.21 µM (inactive); 4: 42.3 µM (inactive); 5: 4.82 µM (inactive); 6: > 100 µM (inactive)

Give me GI50 for each of these molecules, listed below.
1. COC(=O)C(Cc1nc2ccc(Cl)cc2nc1O)C(=O)C(=O)Nc1cc(C)ccc1C (stereo not given)
2. COC(=O)C(Cc1ccccc1)NP(=O)(O)OCC1OC(n2ccc(N)nc2=O)C(O)C1O (stereo not given)
3. CCOC(=O)CCc1c(C)nc2c(C)c3c([nH]c4ccc(Cl)cc43)c(C)c2c1O

> 100 µM (inactive)
> 100 µM (inactive)
11 µM (inactive)

Param readout= GI50; system= U-251; entry= C=CCC1=C2CCCCC2CCC1=O (stereo not given) ; returns value.
> 100 µM (inactive)

----------
# System: SNB-75
# PROTOCOL DESCRIPTION: NCI tumour cell line growth inhibition, 48 h
The source made the active and inactive calls. No stated cut-off is given here; in the data, active = GI50 up to about 1.1 µM and inactive = higher.
MEASURE: GI50

COMPOUND	MEASURE	REPORTED MEASUREMENT
Nc1nc(N)c(N=O)c(Nc2ccc(Br)cc2)n1	GI50	10.4 µM (inactive)
CC1CN=C(N(C(=O)Nc2ccccc2)c2ccccc2)S1 (stereo not given)	GI50	13.3 µM (inactive)
Cc1nn(-c2ccccc2)c2nc3ccc(Cl)cc3c(-c3ccccc3)c12	GI50	> 100 µM (inactive)

Please state, for each entry, its recorded GI50.
1. CCOC(=O)c1cc2c(cn1)[nH]c1cccc(N)c12
2. O=[N+]([O-])c1ccc(C2=NOC(c3ccc(Cl)cc3)N2C23CC4CC(CC(C4)C2)C3)cc1 (stereo not given)
3. CC(N/N=C(\S)N1CCN(c2ccccn2)CC1)c1cccc[n+]1[O-] (stereo not given)
4. CCCCN(CCCC)CC(C(=O)Nc1ccccc1)/C(C)=N\NC(=O)c1ccncc1 (stereo not given)

1. > 100 µM (inactive)
2. > 100 µM (inactive)
3. 48.6 µM (inactive)
4. 16.9 µM (inactive)

----------
# Test system: SNB-78
# PROTOCOL DESCRIPTION: NCI tumour cell line growth inhibition, 48 h
Active and inactive are the calls of the source. Rule as the data show it: active = GI50 up to about 1.1 µM and inactive = higher.
Exercise: for every item that follows, state its recorded GI50.

Observe how each entry below is paired with its result.
COMPOUND	GI50
COC(=O)C(CC(C)=O)CS(=O)(=O)CC(=O)C(=O)Nc1cccc([N+](=O)[O-])c1 (stereo not given)	> 100 µM (inactive)
O=c1ncccn1[C@@H]1O[C@H](CO)[C@H](O)C1O (stereo not given in full)	> 99.5 µM (inactive)
CN1N=C2c3ccccc3OC(c3ccccc3)[C@H]2C1c1ccccc1 (stereo not given in full)	26.4 µM (inactive)

Give GI50 for each of the items listed below.
1. [O-][Cl+3]([O-])([O-])[O-].c1ccc(-c2csc3c4ccccc4c4ccccc4[n+]23)cc1
2. CC(=O)Nc1[nH]c(=O)[nH]c(=O)c1N(C(C)=O)C(C)=O

2.08 µM (inactive)
> 100 µM (inactive)

Please state GI50 for every compound in the list that follows.
1. COc1cc2[nH]c3c(c2cc1OC)CCN[C@@]31CC[C@@]2(CC3c4c(cc(OC)c(O)c42)CCN3C)C[C@@H]1OC (stereo not given in full)
2. COC1CC(OC)C2OC(c3ccccc3)OCC2O1 (stereo not given)
3. CC(C)(C)C(=O)Cc1cc2c(cc1C(=O)O)S(=O)(=O)NC(C(C)(C)C)=C2

1: > 85.3 µM (inactive); 2: > 100 µM (inactive); 3: > 100 µM (inactive)

Hi! Can you tell me GI50 for each of these compounds?
1. O=C(CC1(O)C(=O)Nc2c(Cl)ccc(Cl)c21)c1ccc2ccccc2c1 (stereo not given)
2. C=C(C)C1C/C=C(/C)CCCC2(CCC3=C(CC(C(=C)C)C/C=C(/C)CCC3)O2)C(=O)C1 (stereo not given)

1. 14.5 µM (inactive)
2. > 100 µM (inactive)
